Origin of measurements: patent US20230330254A1

Entries annotated with measured recovery at 4 h, 2 µM
experimental_protocol: Plasma protein binding (equilibrium dialysis)
Type: in vitro ADME, human
condition_summary: Human Plasma; 4 hours dialysis
Number in %, nothing else.

compound | result_unit | value_reported
CC(=O)CC(c1ccccc1)c1c(O)c2ccccc2oc1=O (centres unmarked) [Warfarin] | % | 98.3

Continue with the next compound.
Exercise: Report recovery at 4 h, 2 µM for CCc1cc(OCCCCn2cc(COCCOCCOCCOCCOCCOCCOCCOCCN)nn2)ccc1-c1ccc(C[C@H](NC(=O)[C@H](CC(=O)O)NC(=O)[C@H](CO)NC(=O)[C@@H](NC(=O)C(C)(Cc2ccccc2F)NC(=O)[C@@H](NC(=O)CNC(=O)[C@H](Cc2nn[nH]n2)NC(=O)C(C)(C)C(=O)NCCc2cnc[nH]2)[C@@H](C)O)[C@@H](C)O)C(=O)N[C@@H](CCCc2cc(C)cc(C)c2)C(N)=O)cc1 (some centres unmarked) [LP11, NH2-PEG8-triazole-P8] please.
Key: 89.2

###

target_of_assay: human GLP1R (Homo sapiens)
Sequence (P43220 24-463): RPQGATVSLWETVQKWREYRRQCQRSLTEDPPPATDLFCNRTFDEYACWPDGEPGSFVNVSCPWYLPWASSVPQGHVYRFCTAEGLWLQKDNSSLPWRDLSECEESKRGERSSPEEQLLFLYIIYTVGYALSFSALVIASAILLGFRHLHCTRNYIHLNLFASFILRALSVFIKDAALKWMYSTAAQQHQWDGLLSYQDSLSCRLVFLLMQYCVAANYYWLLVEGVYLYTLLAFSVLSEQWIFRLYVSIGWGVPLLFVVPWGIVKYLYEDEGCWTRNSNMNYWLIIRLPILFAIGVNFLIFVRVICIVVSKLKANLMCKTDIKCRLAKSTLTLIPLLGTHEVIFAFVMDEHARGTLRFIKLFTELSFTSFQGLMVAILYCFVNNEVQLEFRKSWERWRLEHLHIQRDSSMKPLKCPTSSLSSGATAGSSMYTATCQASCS
experimental_protocol: Luciferase reporter assay, HEK293/CRE-Luc/hGLP1R (Example 17)
Type: cell-based
Design: engineered to express full-length human GLP1R, cynomolgus GLP1R; expressed in transfected cells; host or cells: HEK293/CRE-Luc
condition_summary: HEK293/CRE-Luc/hGLP1R; relative to M2361 of the same experiment
Where a SMILES comes first, the peptide text is derived from it. [ ]: non-standard residue; d: D form. The star is where a group is joined. Bip(2'-Et,4'-O(CH2)4NH2) = CCc1cc(OCCCCN)ccc1-c1ccc(C[C@H](N)C(=O)O)cc1; Nva(5-(3,5-Me2Ph)) = Cc1cc(C)cc(CCC[C@H](N)C(=O)O)c1; Ala(1H-tetrazol-5-yl) = N[C@@H](Cc1nnn[nH]1)C(=O)O; αMePhe(2-F) = C[C@](N)(Cc1ccccc1F)C(=O)O; X2 = CC(C)(C(N)=O)C(=O)*
assay_readout: Relative Signal:Noise (% M2361) (%)
Number in %, nothing else.

molecule | value_reported
CCc1cc(OCCCCN)ccc1-c1ccc(C[C@H](NC(=O)[C@H](CC(=O)O)NC(=O)[C@H](CO)NC(=O)[C@@H](NC(=O)[C@](C)(Cc2ccccc2F)NC(=O)[C@@H](NC(=O)CNC(=O)[C@H](Cc2nn[nH]n2)NC(=O)C(C)(C)C(N)=O)[C@@H](C)O)[C@@H](C)O)C(=O)N[C@@H](CCCc2cc(C)cc(C)c2)C(N)=O)cc1 [P4] (X2-[Ala(1H-tetrazol-5-yl)]GT[αMePhe(2-F)]TSD[Bip(2'-Et,4'-O(CH2)4NH2)][Nva(5-(3,5-Me2Ph))]-NH2) | 101.8

Continue with the next molecule.
Exercise: Report Relative Signal:Noise (% M2361) for CCc1cc(OCCCCn2cc(COCCOCCOCCOCCNC(=O)OC[C@@H]3[C@@H]4CCC#CCC[C@@H]43)nn2)ccc1-c1ccc(C[C@H](NC(=O)[C@H](CC(=O)O)NC(=O)[C@H](CO)NC(=O)[C@@H](NC(=O)[C@](C)(Cc2ccccc2F)NC(=O)[C@@H](NC(=O)CNC(=O)[C@H](Cc2nn[nH]n2)NC(=O)C(C)(C)C(=O)NCCc2cnc[nH]2)[C@@H](C)O)[C@@H](C)O)C(=O)N[C@@H](CCCc2cc(C)cc(C)c2)C(N)=O)cc1 [LP9, BCN-PEG4-triazole-P8] please.
Key: 112.2

###

Tested on: HEK293/CRE-Luc cells
experimental_protocol: Luciferase reporter assay, HEK293/CRE-Luc cells without GLP1R (Example 17)
Assay type: cell-based, human
condition_summary: HEK293/CRE-Luc cells without hGLP1R; payloads and linker-payloads
Where a SMILES comes first, the peptide text is derived from it. [ ]: non-standard residue; d: D form. The star is where a group is joined. Bip(2'-Et,4'-O(CH2)4NH2) = CCc1cc(OCCCCN)ccc1-c1ccc(C[C@H](N)C(=O)O)cc1; Malonyl(2,2-Me2,histaminyl) = CC(C)(C(=O)NCCc1cnc[nH]1)C(=O)*; Nva(5-(3,5-Me2Ph)) = Cc1cc(C)cc(CCC[C@H](N)C(=O)O)c1; Ala(1H-tetrazol-5-yl) = N[C@@H](Cc1nnn[nH]1)C(=O)O; αMePhe(2-F) = C[C@](N)(Cc1ccccc1F)C(=O)O; X9 = O=C([C@@H]1CCN(CCc2cnc[nH]2)C1)*; X1 = O=C(CCCCCc1cnc[nH]1)*; NHPh = c1ccc(N*)cc1
Entries annotated with measured S/N
Just the number, please, no unit after it.

compound | assay_readout | value_reported
CCc1cc(OCCCCNC(=O)CNC(=O)CNC(=O)CNC(=O)CNC(=O)[C@H](CO)NC(=O)CCC(=O)N2Cc3ccccc3C#Cc3ccccc32)ccc1-c1ccc(C[C@H](NC(=O)[C@H](CC(=O)O)NC(=O)[C@H](CO)NC(=O)[C@@H](NC(=O)[C@](C)(Cc2ccccc2F)NC(=O)[C@@H](NC(=O)CNC(=O)[C@H](Cc2nn[nH]n2)NC(=O)C(C)(C)C(=O)NCCc2cnc[nH]2)[C@@H](C)O)[C@@H](C)O)C(=O)N[C@@H](CCCc2cc(C)cc(C)c2)C(N)=O)cc1 [LP7, DIBAC-suc-SG4-P9] | S/N | 1.1
CCc1cc(OCCCCN)ccc1-c1ccc(C[C@H](NC(=O)[C@H](CC(=O)O)NC(=O)[C@H](CO)NC(=O)[C@@H](NC(=O)[C@](C)(Cc2ccccc2F)NC(=O)[C@@H](NC(=O)CNC(=O)[C@H](Cc2nn[nH]n2)NC(=O)[C@@H]2CCN(CCc3cnc[nH]3)C2)[C@@H](C)O)[C@@H](C)O)C(=O)N[C@@H](CCCc2cc(C)cc(C)c2)C(N)=O)cc1 [P17] (X9-[Ala(1H-tetrazol-5-yl)]GT[αMePhe(2-F)]TSD[Bip(2'-Et,4'-O(CH2)4NH2)][Nva(5-(3,5-Me2Ph))]-NH2) | S/N | 1.0
CCc1cc(OCCCCN)ccc1-c1ccc(C[C@H](NC(=O)[C@H](CC(=O)O)NC(=O)[C@H](CO)NC(=O)[C@@H](NC(=O)[C@](C)(Cc2ccccc2F)NC(=O)[C@@H](NC(=O)CNC(=O)[C@H](Cc2nn[nH]n2)NC(=O)CCCCCc2cnc[nH]2)[C@@H](C)O)[C@@H](C)O)C(=O)N[C@@H](CCCc2cc(C)cc(C)c2)C(N)=O)cc1 [P11] (X1-[Ala(1H-tetrazol-5-yl)]GT[αMePhe(2-F)]TSD[Bip(2'-Et,4'-O(CH2)4NH2)][Nva(5-(3,5-Me2Ph))]-NH2) | S/N | 1.1
CCc1cc(OCCCCNC(=O)[C@H](CO)NC(=O)CNC(=O)CNC(=O)CNC(=O)CNC(=O)CCC(=O)N2Cc3ccccc3C#Cc3ccccc32)ccc1-c1ccc(C[C@H](NC(=O)[C@H](CC(=O)O)NC(=O)[C@H](CO)NC(=O)[C@@H](NC(=O)[C@](C)(Cc2ccccc2F)NC(=O)[C@@H](NC(=O)CNC(=O)[C@H](Cc2nn[nH]n2)NC(=O)C(C)(C)C(=O)NCCc2cnc[nH]2)[C@@H](C)O)[C@@H](C)O)C(=O)N[C@@H](CCCc2cc(C)cc(C)c2)C(N)=O)cc1 [LP6, DIBAC- suc-G4S- P9] | S/N | 1.4

Continue with the next compound.
Exercise: Report S/N for CCc1cc(OCCCCN)ccc1-c1ccc(C[C@H](NC(=O)[C@H](CC(=O)O)NC(=O)[C@H](CO)NC(=O)[C@@H](NC(=O)[C@](C)(Cc2ccccc2F)NC(=O)[C@@H](NC(=O)CNC(=O)[C@H](Cc2nn[nH]n2)NC(=O)C(C)(C)C(=O)NCCc2cnc[nH]2)[C@@H](C)O)[C@@H](C)O)C(=O)N[C@@H](CCCc2cc(C)cc(C)c2)C(=O)Nc2ccccc2)cc1 [P23] ({Malonyl(2,2-Me2,histaminyl)}-[Ala(1H-tetrazol-5-yl)]GT[αMePhe(2-F)]TSD[Bip(2'-Et,4'-O(CH2)4NH2)][Nva(5-(3,5-Me2Ph))]-NHPh) please.
Key: 1.6
